- assayed.target: T1, human CD3 epsilon/delta heterodimer, biotin labeled (human, UniProt P04234 22-105, biotin labeled)
- T1 construct: bought (Acro Biosystems); also called Human CD3e/d
- test.details: SPR, biotinylated CD3e/d on SA chip;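 note: analytes injected over immobilized CD3 heterodimer, association 60-120 s and dissociation 120-420 s, rate and affinity constants obtained by fitting sensorgrams to a 1:1 binding model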
endpoint.name: kon (M⁻¹ s⁻¹)
One number for each entry, in M⁻¹ s⁻¹.

Consider the following illustrative entries.
| binder | value.measured |
| --- | --- |
| ULBP2xCD3 bispecific CD58 fusion containing CD3 variant CD3-A9 (bispecific antibody, V domains shown) VH: EVQLLESGGGLVQPGGSLKLSCAASGFTFNTYAMNWVRKAPGKGLEWVARIRSKYNNYATYYADSVKDRFTISRDDSKNTAYLQMNNLKTEDTAVYYCVRHGSFGNSYVSWFAYWGQGTLVTVSS VL: ELVVTQEPSLTVSPGGTVTLTCRSSTGAVTTSNYANWVQDKPGQAPRGLIGGTNKRAPGTPARFSGSLLGGKAALTLSGVQPEDEAEYYCALWYSQLWVFGGGTKLTVL | 654000 |
| ULBP2xCD3 bispecific CD58 fusion containing CD3 variant CD3-A5 (bispecific antibody, V domains shown) VH: EVQLLESGGGLVQPGGSLKLSCAASGFTFNTYAMNWVRKAPGKGLEWVARIRSKYNNYATYYADSVKDRFTISRDDSKNTAYLQMNNLKTEDTAVYYCVRHGNFGDDYVSWFAYWGQGTLVTVSS VL: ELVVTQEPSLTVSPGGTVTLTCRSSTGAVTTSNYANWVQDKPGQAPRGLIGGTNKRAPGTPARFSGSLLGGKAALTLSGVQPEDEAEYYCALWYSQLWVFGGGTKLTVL | 69200 |

Problem: Query (binder): ULBP2xCD3 bispecific CD58 fusion containing CD3 variant CD3-A8 (bispecific antibody, V domains shown) VH: EVQLLESGGGLVQPGGSLKLSCAASGFTFNTYAMNWVRKAPGKGLEWVAKIRSKYNNYATYYADSVKDRFTISRDDSKNTAYLQMNNLKTEDTAVYYCVRHGNFGDSYVSWFAYWGQGTLVTVSS VL: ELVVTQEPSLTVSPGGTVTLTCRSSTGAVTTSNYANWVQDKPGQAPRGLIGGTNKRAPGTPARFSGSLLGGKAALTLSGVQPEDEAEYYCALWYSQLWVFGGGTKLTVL ; field requested: kon
Solution: 432000
